tested on: Cryptococcus neoformans (serotype D); assay: Example K: Cryptococcus neoformans (serotype D) growth inhibition; assay type: cell-based; details: read-out: IC50 (concentration for 50% of inhibition); OD of 48 hour reading, 37° C., tested 4 to 60 μM, XLfit
measured.parameter: IC50 (nM)
Give bare numbers, in nM.

IC50 lookup needed for CCCCCCCCCCCCn1ccnc1 [Compound C12-Im, reference compound] , thanks. 1810

---

tested on: PC-3 prostate cancer cells; assay: Example T: sensitisation of PC-3 cells to doxorubicin, oxaliplatin, paclitaxel or vincristine, Wst1; assay type: cell-based, human; conditions: PC-3 cells; compound 0.4 μM + vincristine 100 nM; 72 hours; chemotherapy agent alone normalized to 100%
measured.parameter: Vincristine 100 nM: percent cell survival (%)
Answers are plain numbers, in %.

CCCCCCOc1cccc(OCCCNc2ccnc3ccccc23)c1 = 71.2
c1ccc(OCCCCCCNc2ccnc3ccccc23)cc1 = 24.2
CCCCCCOc1ccccc1CNc1ccnc2ccccc12 [DS, N-[2-(Hexyloxy)benzyl]quinolin-4-amine] = 98.6

Hello, I would appreciate it if you could give Vincristine 100 nM: percent cell survival for each entry below.
1. CCCCOCCCCCCCCNc1ccnc2ccccc12
2. c1ccc(CCOc2cccc(CNc3ccnc4ccccc34)c2)cc1

[33.8, 32.2]

Hello, I would appreciate it if you could give Vincristine 100 nM: percent cell survival for each entry below.
1. CCCCCCOCCCCCCCCNc1ccnc2ccccc12 [CH, N-[8-(Hexyloxy)octyl]quinolin-4-amine]
2. CCCCCCOc1ccc(CNc2ccnc3ccccc23)cc1F
3. CCCCCCc1ccc(Nc2ccnc3ccccc23)cc1
4. CCCCCCOCCCCCCCCNc1ccnc2c(Cl)cccc12

67.4
28.3
91.1
31.5

Hello, I would appreciate it if you could give Vincristine 100 nM: percent cell survival for each entry below.
1. COc1ccc(OCCCCCCNc2ccnc3ccccc23)cc1
2. c1ccc(COCCCCCCCCNc2ccnc3ccccc23)cc1 [CO, N-[8-(Benzyloxy)octyl]quinolin-4-amine]

1: 38.1; 2: 32.8

---

tested on: Trichophyton rubrum strains; assay: Example N: MIC and MFC (CLSI) against Trichophyton rubrum; type: cell-based; conditions: read-out: MIC 100%, Range, incubated for 96 hrs, three clinical strains
measured.parameter: MIC

Some entries whose results are on file:
CCCCCCCCCCNc1ncnc2ccccc12 = 0.25 to 4 µg/mL
CCCCCCOc1cccc(CNc2ccnc3ccccc23)c1 [Compound AC, N-[3-(Hexyloxy)benzyl]quinolin-4-amine] = 0.5 to 4 µg/mL

Hello, I would appreciate it if you could give MIC for each entry below.
1. CCCCCCCCCCNc1ccnc2ccccc12
2. CCCCOCCCCCCCCCCNc1ccnc2ccccc12
3. CCCCCCOCCCCCCCCNc1ccnc2cc(Cl)ccc12
4. CCCCCCOCCCCCCCCCCNc1ccnc2ccccc12 [Compound AL, N-[10-(Hexyloxy)decyl]quinolin-4-amine]
5. COc1ccc(OCCCCCCCCNc2ncnc3ccccc23)cc1
6. CCCCCCOCCCCCCCCNc1ccnc2c(Cl)cccc12

0.25 to 2 µg/mL
0.5 to 4 µg/mL
1 to 16 µg/mL
1 to 4 µg/mL
4 to 16 µg/mL
0.25 to 8 µg/mL

---

Kindly state Body Weight (mean ± SEM), Initial for each of the entries shown.
tested on: imiquimod-induced dermatitis; conditions: mouse, in vivo
One number for each entry, in g.

Some entries whose results are on file:
O=C(NCCCCCCCCNc1ccnc2ccccc12)c1cccnc1 [EF] = 21.5
COc1ccc(OCCCCCCCCNc2ncnc3ccccc23)cc1 [AE] = 20.9
C[C@@H]1C[C@H]2[C@@H]3CCC4=CC(=O)C=C[C@]4(C)[C@@]3(F)[C@@H](O)C[C@]2(C)[C@@]1(O)C(=O)CO [Dexamethasone, reference compound] = 20.5

Hello, I would appreciate it if you could give Body Weight (mean ± SEM), Initial for each entry below.
1. c1ccc(Oc2cccc(Nc3ccnc4ccccc34)c2)cc1 [DE, N-(3-Phenoxyphenyl)quinolin-4-amine]
2. c1ccc(Oc2ccc(Nc3ccnc4ccccc34)cc2)cc1 [DD, N-(4-Phenoxyphenyl)quinolin-4-amine]
3. c1ccc(Oc2cccc(CNc3ncnc4ccccc34)c2)cc1 [BM, N-(3-Phenoxybenzyl)quinazolin-4-amine]

[20.6, 20.9, 20.8]

Hello, I would appreciate it if you could give Body Weight (mean ± SEM), Initial for each entry below.
1. CCCCCCOc1cccc(CNc2ccnc3ccccc23)c1 [Compound AC, N-[3-(Hexyloxy)benzyl]quinolin-4-amine]
2. CCCCCCCCCCOc1cccc(CNc2ccnc3ccccc23)c1 [DU, N-[3-(Decyloxy)benzyl]quinolin-4-amine]

1: 21.1; 2: 20.4

---

Kindly state Body Weight (mean ± SEM), Final for each of the entries shown.
system: imiquimod-induced dermatitis; conditions: mouse, in vivo
Numbers only, in g.

Some entries whose results are on file:
c1ccc(Oc2cccc(Nc3ccnc4ccccc34)c2)cc1 = 20.5
O=C(NCCCCCCCCNc1ccnc2ccccc12)c1cccnc1 = 21.3
CCCCCCOc1cccc(CNc2ccnc3ccccc23)c1 [Compound AC, N-[3-(Hexyloxy)benzyl]quinolin-4-amine] = 21.3
COc1ccc(OCCCCCCCCNc2ncnc3ccccc23)cc1 = 21.3

Hello, I would appreciate it if you could give Body Weight (mean ± SEM), Final for each entry below.
1. CCCCCCCCCCOc1cccc(CNc2ccnc3ccccc23)c1 [DU, N-[3-(Decyloxy)benzyl]quinolin-4-amine]
2. C[C@@H]1C[C@H]2[C@@H]3CCC4=CC(=O)C=C[C@]4(C)[C@@]3(F)[C@@H](O)C[C@]2(C)[C@@]1(O)C(=O)CO [Dexamethasone, reference compound]
3. c1ccc(Oc2cccc(CNc3ncnc4ccccc34)c2)cc1
4. c1ccc(Oc2ccc(Nc3ccnc4ccccc34)cc2)cc1

20.9
18.1
20.9
20.7

---

Kindly state Final Tumor Volume for each of the entries shown.
tested on: 4T1 mouse mammary breast cancer cells; assay: Example O: syngeneic 4T1 breast cancer growth in Balb/C mice; format: in vivo; settings: 4T1 in female Balb/C mice, 120 μmol/kg/day oral gavage, day 2 to day 30
Numbers only, in mm^3.

Some entries whose results are on file:
CCCCCCOc1cccc(CNc2ccnc3ccccc23)c1 [Compound AC, N-[3-(Hexyloxy)benzyl]quinolin-4-amine] = 723
CCCCCCOc1ccccc1OCCCNc1ccnc2ccccc12 [CQ] = 140
CCCCOCCCCCCCCNc1ccnc2ccccc12 [CI, N-(8-Butoxyoctyl)quinolin-4-amine] = 702
CCCCCCOc1ccccc1OCCNc1ccnc2ccccc12 [CP] = 352
CCCCCCOc1ccc(OCCNc2ccnc3ccccc23)cc1 [BA] = 641

Final Tumor Volume lookup needed for CCCCCCOc1ccc(CNc2ccnc3ccccc23)cc1 [AA, N-[4-(Hexyloxy)benzyl]quinolin-4-amine] , thanks. 563

---

system: Candida glabrata strains; experiment: Example N: MIC and MFC (CLSI) against Candida glabrata; format: cell-based; conditions: Nakaseomyces glabratus, 48 h, read-out: MIC 100%
Kindly state MIC for each of the entries shown.

CCCCCCOc1cccc(CNc2ccnc3ccccc23)c1 [Compound AC, N-[3-(Hexyloxy)benzyl]quinolin-4-amine] = 2 to 4 µg/mL

Hello, I would appreciate it if you could give MIC for each entry below.
1. CCCCOCCCCCCCCCCNc1ccnc2ccccc12 [AM, N-(10-Butoxydecyl)quinolin-4-amine]
2. CCCCCCCCCCNc1ncnc2ccccc12 [Compound AH, N-(Decyl)quinazolin-4-amine]
3. CCCCCCOCCCCCCCCNc1ccnc2c(Cl)cccc12 [Compound AX]
4. CCCCCCOCCCCCCCCCCNc1ccnc2ccccc12 [Compound AL, N-[10-(Hexyloxy)decyl]quinolin-4-amine]
5. CCCCCCCCCCNc1ccnc2ccccc12 [Compound AG, N-(Decyl)quinolin-4-amine]
6. CCCCCCOCCCCCCCCNc1ccnc2cc(Cl)ccc12 [AW]
7. COc1ccc(OCCCCCCCCNc2ncnc3ccccc23)cc1 [AE]

2 to 4 µg/mL
4 to 8 µg/mL
8 µg/mL
4 µg/mL
0.5 to 2 µg/mL
8 to 16 µg/mL
4 to 8 µg/mL

---

Kindly state MIC for each of the entries shown.
system: Trichophyton rubrum; experiment: Example J: Trichophyton rubrum growth inhibition, scoring by eye; type: cell-based; conditions: Trichophyton rubrum, 144 h; 6 days at 30° C., tested 6 to 40 μM; read-out: MIC, μM (maximum inhibition concentration, scoring by eye)

Some entries whose results are on file:
CCCCCCOc1cccc(CNc2ncnc3ccccc23)c1 [AK, N-[3-(Hexyloxy)benzyl]quinazolin-4-amine] = 18 µM
CCCCCCOCCCCCCCCNc1ccnc2cc(Cl)ccc12 = 6 µM
c1ccc(Oc2cccc(CNc3ccnc4ccccc34)c2)cc1 = > 40 µM

Hello, I would appreciate it if you could give MIC for each entry below.
1. CCCCOCCCCCCCCCCNc1ccnc2ccccc12
2. CCCCCCOCCCCCCCCNc1ccnc2c(Cl)cccc12
3. CCCCCCCCCCNc1ncnc2ccccc12
4. CCCCOCCCCCCCCCCn1cnc2cnccc21
5. CCCCCCOc1cccc(CNc2ccnc3ccccc23)c1 [Compound AC, N-[3-(Hexyloxy)benzyl]quinolin-4-amine]

12 µM
6 µM
6 µM
6 µM
18 µM

Provenance of the data: patent US20250034139A1
